Test: probe aNog binding to arrayed compounds – biochemical, biotinylated probe, 635/667 nm fluorescence, primary screen (AID 1115);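 note: probe is biotinylated aNog protein used at 0.15 µg/mL for 1 h at 4 C; z-score combines 667 nm fluorescence of each spot with its signal to noise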
Settings: small-molecule microarray, higher = more signal
// thresholds for composite z-score classes: Low (below -0.1), Medium (-0.1 to below 0.4), High (0.4 or more)

COMPOUND	DISCRETE_LABEL
COc1cc2c(cc1O)C(c1cccs1)N(Cc1cccc(OC(F)(F)F)c1)CC2 (centres undefined)	Medium
COC(=O)[C@@]1(Cc2ccccc2)[C@H]2c3cc(C(=O)N(C)C)n(CCc4c[nH]c5ccc(O)cc45)c3C[C@H]2CN1C(=O)c1ccccc1	High
O=C1[C@@]23C=C(Br)[C@H](C[C@@H]2COC3)[C@]12CO2	Medium
NCCCCCCNC(=O)[C@H]1C[C@H]2C(=O)N[C@@H](Cc3ccccc3)C(=O)N2[C@H]1c1cccc(OCCO)c1	Medium
CCOC(=O)C[C@H]1[C@H](OC(=O)c2ccc(C(=O)c3ccccc3)cc2)[C@@H](NC(=O)c2ccccc2)c2cc(OCCCO)ccc2N1C(=O)c1ccccc1	Low
CCCC=C(CCC)[C@@H](NS(=O)(=O)c1ccc(Cl)cc1)c1ccc(C(=O)OC)cc1	Low
C=CCNC(=O)[C@@H]1[C@H]2C(=O)O[C@H](c3ccccc3)[C@H](c3ccccc3)N2[C@H](c2ccc(OCCO)cc2)[C@@]12C(=O)N(C(=O)OCCOC)c1ccc(C#CCC(C(=O)OC)C(=O)OC)cc12	High
COC(=O)[C@H](Cc1ccccc1)N[C@H](/C=C/C1CC1)[C@@H](O)Cc1ccccc1	Low

Consider CCCNC(=O)[C@@H]1c2ccccc2C(=O)N(Cc2ccccc2OC)[C@H]1c1ccc(CO)cc1 . To which composite z-score class does it belong? High

State the class of the compound shown: CC(=O)NCCCC[C@@H]1NC(=O)[C@H]2C[C@@H](C(=O)O)[C@@H](c3ccc(O)cc3)N2C1=O Medium

* * *

Catalogue of z-score values
Assay: basal CRE-LacZ reporter activity in PC12 – cell-based, unstimulated, primary screen (AID 1145)
Details: no forskolin, luminescence, 4.5 h, higher = more signal, called active from +8 up or from −8 down
Write the number on its own, no unit after it.

Worked examples follow.
COMPOUND	z-score
CC=CC(O)C1C=CC2C(=O)N(C)C(=O)C2N1N(c1ccccc1)c1ccccc1 (stereo not drawn)	-0.326
CC(C)[C@@H](C(=O)O)n1cc(C2(O)CCCCC2)nn1	-0.23
[N-]=[N+]=NCc1ccccc1[C@H]1OC(c2ccc(OCCCO)cc2)=N[C@@]1(Cc1ccccc1)C(=O)N1CCCCC1	-0.16
CCOC(=O)C1=CCC(c2ccc(F)cc2)N(S(=O)(=O)c2ccc(C)cc2)C1 (stereo not drawn)	0.481
CCCC=C(CCC)[C@@H](NS(=O)(=O)c1ccc(Cl)cc1)c1ccc(C(=O)OC)cc1	-0.179

Please report z-score for the following compound: CN1CCC(CCCO)=CC1c1cccs1 (stereo not drawn) -0.145

Using the record for CO[C@H]1O[C@H](CO)[C@@H](OC(=O)Nc2ccc(Oc3ccccc3)cc2)[C@H](OC(=O)Nc2ccc3c(c2)OCO3)[C@@H]1OC(=O)Nc1ccc2c(c1)OCO2 , state its measured z-score. 0.502

Name the recorded z-score of the compound listed here: COc1ccc([Si](C)(C)[C@@H]2[C@@H](CCn3cc([C@H](O)c4ccccc4)nn3)O[C@]3(C(=O)N(Cc4cccc(N5CCC5=O)c4)c4ccccc43)[C@H]2C)cc1 -0.272

* * *

Assay: small molecules captured by biotinylated probe aFGF10 – biochemical, small-molecule microarray, fluorescence 635/667, stem cell growth factor project, primary screen (AID 1071);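 note: score merges 667 nm spot intensity and signal to noise from triplicate slides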
Conditions: higher = more signal
# composite z-score annotations
Reply with just the number.

// known answers, use as guide
SMILES_CODE	composite z-score
C=C(CCCC)/C(=C/C[C@H](OC(C)=O)c1ccccc1OCCO)c1cnc2ccccc2c1	0.506
[N-]=[N+]=NCc1ccccc1[C@@H]1OC(c2ccc(OCCCO)cc2)=N[C@]1(CCS(=O)(=O)c1ccccc1)C(=O)N1CCOCC1	0.89
COC(=O)[C@@]1(Cc2ccc(OC)cc2)[C@H]2c3cc(C(=O)N4CCCC4)n(CCc4ccc(O)c(O)c4)c3C[C@H]2CN1C(=O)c1ccccc1	0.0359
[N-]=[N+]=Nc1ccccc1C[C@@]1(C(=O)N2CCCCC2)N=C(c2ccc(OCCCO)cc2)O[C@@H]1c1ccccc1	0.763
O=C(CS)NCCCCCNC(=O)[C@H]1C[C@H]2C(=O)NCC(=O)N2[C@H]1c1cccc(OCCO)c1	-0.461
CCCCCCc1nc(-c2ccc(-c3ccc(Cl)c(Cl)c3)o2)cc2c1[Si](C(C)C)(C(C)C)O[C@H]2c1ccccc1	-0.379

// below: composite z-score requested for another compound
Report composite z-score, nothing else, for this compound: COC(=O)[C@H](Cc1ccccc1)N[C@H](/C=C/C1CC1)[C@@H](O)Cc1ccccc1 -0.471

* * *

System: XIP peptide (Xip251-270) binding
Experiment: XIP fragment 251-270 binding compounds – biochemical, small-molecule microarray, fluorescence 635/667 nm, 0.1 µg/mL protein, primary screen (AID 1182)
Conditions: fluorescent protein binding, 635 nm, higher = more signal, called active from +8 up or from −8 down
Calls of active or inactive are those of the source.
PROPERTY_NAME: composite z-score

The examples below pair each entry with its known result.
SMILES_CODE	VALUE_REPORTED
O=C(NC1CC1)[C@@H]1c2ccccc2C(=O)N(C2Cc3ccccc3C2)[C@H]1c1ccc(CO)cc1	0.456 (inactive)
[N-]=[N+]=Nc1ccccc1C[C@@]1(C(=O)N2CCCCC2)N=C(c2ccc(OCCCO)cc2)O[C@@H]1c1ccccc1N=[N+]=[N-]	0.973 (inactive)
COc1ccc(C(=O)Nc2cccc(CN3C(=O)[C@]4(O[C@H](CCn5cc(CCO)nn5)[C@@H]([Si](C)(C)c5ccc(OC)cc5)[C@@H]4C)c4ccccc43)c2)cc1	-0.16 (inactive)

Next item in the queue.
Indicate the recorded composite z-score value for this compound: C=C(CCCC)/C(=C/C[C@@H](OC(C)=O)c1ccccc1OCCO)c1cc(C(=O)OC)ccc1OC -0.0324 (inactive)

* * *

Tested on: Fibrinogen (Alexa647-labelled)
Test: Alexa647-fibrinogen binding to printed small molecules – biochemical, small-molecule microarray, 635/667 nm fluorescence, artefact control for SMM control-protein annotation, profiling panel (AID 1131);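 note: z-score merges 667 nm fluorescence with per-spot signal-to-noise over triplicate slides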
Settings: fibrinogen-A647 binding fluorescence, higher = more signal
PROPERTY_NAME: composite z-score
Field format: numeric only.

Field: example entries. Status: answers known.
COMPOUND	composite z-score
CC1CC/C=C\[C@H]2OC34C=CCN(c5ccc6ccccc6c5)C(=O)[C@H]3N(CCO)C(=O)[C@@H]4C2C(=O)O1 (some centres undefined)	-0.0601
C=C(CCCC)/C(=C/C[C@H](OC(C)=O)c1ccccc1OCCO)c1cnc2ccccc2c1	-0.128
COc1ccc(CCNC(=O)[C@@]2(C)c3ccccc3C(=O)N(c3ccc(C)cn3)[C@H]2c2ccc(CO)cc2)cc1	-1.95

Now consider a different compound.
Determine reported composite z-score for C=C(CCCC)/C(=C/C[C@H](OC(=O)c1ccncc1)c1ccc(OCCO)cc1)c1cc(C(=O)OC)ccc1OC ; test system: Fibrinogen (Alexa647-labelled). 0.438

* * *

Biological target: Epidermal growth factor receptor (Homo sapiens) (UniProt P00533)
Sequence (P00533 whole entry, looked up): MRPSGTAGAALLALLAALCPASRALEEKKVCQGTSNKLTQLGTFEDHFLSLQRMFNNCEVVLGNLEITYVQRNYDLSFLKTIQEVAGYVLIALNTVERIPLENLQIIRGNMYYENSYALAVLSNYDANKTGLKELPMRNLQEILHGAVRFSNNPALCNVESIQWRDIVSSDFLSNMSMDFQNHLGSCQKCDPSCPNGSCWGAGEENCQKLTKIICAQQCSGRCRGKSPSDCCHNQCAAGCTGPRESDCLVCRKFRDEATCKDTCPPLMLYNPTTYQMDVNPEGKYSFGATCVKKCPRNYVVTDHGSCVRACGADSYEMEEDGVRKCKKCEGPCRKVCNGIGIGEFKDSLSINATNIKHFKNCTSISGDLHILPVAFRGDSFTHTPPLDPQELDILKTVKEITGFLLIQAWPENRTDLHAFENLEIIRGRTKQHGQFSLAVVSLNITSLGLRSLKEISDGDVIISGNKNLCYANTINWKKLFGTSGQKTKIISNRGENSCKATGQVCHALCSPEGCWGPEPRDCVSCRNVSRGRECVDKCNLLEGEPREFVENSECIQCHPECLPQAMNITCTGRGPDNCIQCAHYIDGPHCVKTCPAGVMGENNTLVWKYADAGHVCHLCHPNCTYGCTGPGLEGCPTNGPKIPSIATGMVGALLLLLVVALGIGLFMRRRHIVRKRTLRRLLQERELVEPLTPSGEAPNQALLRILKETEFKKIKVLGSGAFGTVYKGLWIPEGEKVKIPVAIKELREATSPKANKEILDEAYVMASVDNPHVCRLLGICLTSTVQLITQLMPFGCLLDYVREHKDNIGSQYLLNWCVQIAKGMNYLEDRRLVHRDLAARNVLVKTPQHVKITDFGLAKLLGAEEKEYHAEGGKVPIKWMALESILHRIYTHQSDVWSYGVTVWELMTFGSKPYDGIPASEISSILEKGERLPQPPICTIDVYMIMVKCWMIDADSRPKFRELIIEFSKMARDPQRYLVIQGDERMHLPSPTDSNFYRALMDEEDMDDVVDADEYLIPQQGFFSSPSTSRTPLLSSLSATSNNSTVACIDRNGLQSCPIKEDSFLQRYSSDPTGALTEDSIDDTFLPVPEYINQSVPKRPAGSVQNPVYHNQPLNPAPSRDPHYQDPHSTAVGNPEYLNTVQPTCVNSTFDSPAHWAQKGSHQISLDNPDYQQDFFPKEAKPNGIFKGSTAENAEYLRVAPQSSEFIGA
Test: compounds binding epidermal growth factor receptor – biochemical, small-molecule microarray, 635 nm fluorescence, primary screen (AID 1104);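 note: score merges 667 nm emission intensity with spot signal to noise over triplicate slides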
Settings: EGFR binding, higher = more signal
Measured composite z-score values are reported for all entries that follow.
Number only, no unit.

MOLECULE	MEASURED_TARGET	PROPERTY_NAME	VALUE_REPORTED
O=C1N(CCS(=O)(=O)c2ccccc2)c2ccccc2[C@@H]2OC(c3ccc(OCCCO)cc3)=N[C@]12Cc1ccccc1	Epidermal growth factor receptor (Homo sapiens) (UniProt P00533)	composite z-score	0.542
COC(=O)[C@@]1(Cc2ccc(OC)cc2)[C@H]2c3cc(C(=O)N4CCCC4)n(CCCNc4ncc(C(F)(F)F)cc4Cl)c3C[C@H]2CN1C(=O)c1ccccc1	Epidermal growth factor receptor (Homo sapiens) (UniProt P00533)	composite z-score	0.659
COCCOC(=O)N1C(=O)[C@@]2(c3cc(C#Cc4ccc(OC)cc4)ccc31)[C@H](c1ccc(O)cc1)N1[C@H](c3ccccc3)[C@H](c3ccccc3)OC(=O)[C@H]1[C@@H]2C(=O)Nc1nc2ccccc2s1	Epidermal growth factor receptor (Homo sapiens) (UniProt P00533)	composite z-score	0.404

Give reported composite z-score for CCCCCCCCCCC(O)C1C=CC2C(=O)NC(=O)C2N1Nc1ccc(Cl)cc1Cl (stereo not given) (Epidermal growth factor receptor (Homo sapiens) (UniProt P00533)) -0.724

Using Epidermal growth factor receptor (Homo sapiens) (UniProt P00533) as the test system, report measured composite z-score of C=C(C(=O)CC[C@H](OC(C)=O)c1ccccc1OCCO)C(C)C . -0.803

Provide the reported composite z-score (system: Epidermal growth factor receptor (Homo sapiens) (UniProt P00533)) for COC(=O)[C@@]1(Cc2ccc(OC)cc2)[C@H]2c3cc(C(=O)N4CCCC4)n(CCSCCO)c3C[C@H]2CN1C(=O)c1ccccc1 0.0009

Please look at O=C1OCCC=C[C@H]2OC34C=CCN(c5ccc(Cl)cc5)C(=O)[C@H]3N(CCCO)C(=O)[C@@H]4C12 (stereo not given in full) and tell me its recorded composite z-score on Epidermal growth factor receptor (Homo sapiens) (UniProt P00533). -0.522

Retrieve composite z-score on Epidermal growth factor receptor (Homo sapiens) (UniProt P00533); query COC(=O)[C@@]1(Cc2ccc(F)cc2)[C@H]2c3cc(C(=O)N(C)C)n(Cc4cc(C)n(C)n4)c3C[C@H]2CN1C(=O)c1ccccc1 -0.0733

Name the value of composite z-score reported for CN(C)CCCCCCNC(=O)[C@@H]1C[C@@H]2C(=O)N[C@@H](CCCC[N+](C)(C)C)C(=O)N2[C@@H]1c1ccc(O)cc1 when tested on Epidermal growth factor receptor (Homo sapiens) (UniProt P00533). -0.144

System Epidermal growth factor receptor (Homo sapiens) (UniProt P00533). Read-out composite z-score. Item CC(C)N1CC=CC23O[C@@H]4C=CCOC(=O)[C@@H]4[C@H]2C(=O)N(CCCCCO)[C@@H]3C1=O (stereo not given in full) . Report value. -0.0616

Provide composite z-score, recorded with Epidermal growth factor receptor (Homo sapiens) (UniProt P00533), of COC(=O)[C@@]1(CCC(=O)OC(C)(C)C)N=C(c2ccc(OCCCO)cc2)O[C@H]1c1ccccc1 -1.03
